Molecular target: T1, human NTB-A (human, UniProt Q96DU3 22-332)
T1 construct: Endogenous NTB-A on antigen-positive Ramos cells (also on MM.1R, WIL2-S and Raji cells and normal human T and B lymphocytes); also called SLAMF6; human NTB-A isoform-1
T1 sequence: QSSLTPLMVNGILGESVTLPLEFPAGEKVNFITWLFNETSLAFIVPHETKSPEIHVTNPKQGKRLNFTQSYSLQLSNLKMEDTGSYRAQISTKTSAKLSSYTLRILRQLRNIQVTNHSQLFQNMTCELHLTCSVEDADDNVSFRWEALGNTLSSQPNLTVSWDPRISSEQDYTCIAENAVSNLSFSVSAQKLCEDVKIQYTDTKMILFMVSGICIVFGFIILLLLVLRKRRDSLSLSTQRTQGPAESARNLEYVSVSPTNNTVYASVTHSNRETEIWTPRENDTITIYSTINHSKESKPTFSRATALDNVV
Assay: competition flow cytometry on Ramos cells; competitor 5 nM mouse 20F3-Alexa Fluor 647
TEST READOUT: EC50
Give the figure together with its unit, number first.

The value of EC50 measured for the binder humanized 20F3 HDLC (antibody, V domains shown, Humanized heavy chain HD paired with humanized light chain LC) VH: QIQLVQSGSELKKPGASVKVSCKASGYTFTNYGMNWVRQAPGQDLKWMGWINTYSGEPRYADDFKGRFVFSLDKSVNTAYLQISSLKAEDTAVYYCARDYGRWYFDVWGQGTTVTVSS VL: QIVLSQSPATLSLSPGERATLSCRASSSVSHMHWYQQKPGQAPRPWIYATSNLASGIPARFSGSGSGTDYTLTISSLEPEDFAVYYCQQWSSTPRTFGGGTKVEIKR turned out to be 6 nM

The value of EC50 measured for the binder humanized 20F3 HCLC (antibody, V domains shown, Humanized heavy chain HC paired with humanized light chain LC) VH: QIQLVQSGSELKKPGASVKVSCKASGYTFTNYGMNWVRQAPGQDLEWMGWINTYSGEPRYADDFKGRFVFSLDKSVNTAYLQISSLKAEDTAVYYCARDYGRWYFDVWGQGTTVTVSS VL: QIVLSQSPATLSLSPGERATLSCRASSSVSHMHWYQQKPGQAPRPWIYATSNLASGIPARFSGSGSGTDYTLTISSLEPEDFAVYYCQQWSSTPRTFGGGTKVEIKR turned out to be 8 nM

The value of EC50 measured for the binder humanized 20F3 HELC (antibody, V domains shown, Humanized heavy chain HE paired with humanized light chain LC) VH: QIQLVQSGSELKKPGASVKVSCKASGYTFTNYGMNWVKQAPGQDLKWMGWINTYSGEPRYADDFKGRFAFSLDKSVNTAYLQISSLKAEDTAVYFCARDYGRWYFDVWGQGTTVTVSS VL: QIVLSQSPATLSLSPGERATLSCRASSSVSHMHWYQQKPGQAPRPWIYATSNLASGIPARFSGSGSGTDYTLTISSLEPEDFAVYYCQQWSSTPRTFGGGTKVEIKR turned out to be 10 nM
